# credit: PubChem BioAssay

Assay: probe aXIP binding to arrayed compounds – biochemical, NeuroSMM set, 635/667 nm fluorescence, primary screen (AID 1119);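 note: probe is the protein aXip251-270 applied at 1 µg/mL to compound-printed slides; binding of probe to printed compounds measured as 667 nm fluorescence plus signal to noise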
Conditions: small-molecule microarray, higher = more signal, called active from +8 up or from −8 down
Would you mind labelling by composite Z-score? At or over 0.2 is Condition met, under is Condition not met.

Field: example entries. Status: answers known.
| compound | class_label |
| --- | --- |
| COCCOC(=O)N1C(=O)[C@@]2(c3cc(C#Cc4ccc(OC)cc4)ccc31)[C@H](c1ccc(O)cc1)N1[C@H](c3ccccc3)[C@H](c3ccccc3)OC(=O)[C@H]1[C@@H]2C(=O)Nc1nc2ccccc2s1 | Condition met |
| CC#CC(=O)Oc1ccc(Br)cc1C=CC(=O)OCC | Condition met |
| CO[C@H]1O[C@H](CO)[C@@H](OC(=O)Nc2ccc(Br)cc2)[C@@H]2OC(=O)[C@H](Cc3cccc(Br)c3)C/C=C/C[C@@H](Cc3cccc(Br)c3)C(=O)O[C@@H]12 | Condition not met |

Check this compound for composite Z-score at or above 0.2: COC(=O)[C@@]1(Cc2ccc(OC)cc2)[C@H]2c3cc(C(=O)N4CCCC4)n(Cc4nc5ccccc5[nH]4)c3C[C@H]2CN1C(=O)c1ccccc1 Condition met

Lookup C=CCC(OC(C)=O)[C@@H]1[C@@H](N(Cc2ccc(-c3cccc(C(F)(F)F)c3)o2)C(=O)c2cccc3ccccc23)c2cc(OCCCO)ccc2N1C(=O)Cc1ccc2ccccc2c1 (stereo partly specified) Condition not met
